I'd be grateful if you could share measured composite z-score for these entries.
target: Carbonic anhydrase 2 (Homo sapiens) (UniProt P00918); test: CAII small-molecule binders, profiling panel, biochemical, small-molecule microarray, Alexa647-labelled CAII (AID 1122); conditions: CAII-A647 binding fluorescence, higher = more signal
Give bare numbers.

Compound	Endpoint Value
C=CCOC(=O)[C@H]1[C@@H]2C(=O)O[C@@H](c3ccccc3)[C@@H](c3ccccc3)N2[C@@H](c2ccc(OCCOC(=O)[C@@H]3C[C@@H]4C(=O)N[C@@H](Cc5ccccc5)C(=O)N4[C@@H]3c3ccc(O)cc3)cc2)[C@]12C(=O)Nc1ccc(I)cc12	0.218
COc1ccc([Si](C)(C)[C@@H]2[C@@H](CC(=O)N3Cc4ccccc4C[C@H]3CO)O[C@]3(C(=O)N(Cc4ccc(I)cc4)c4ccccc43)[C@H]2C)cc1	0.284
CCOC(=O)C1=CCC(c2cccn2C(=O)OC(C)(C)C)N(S(=O)(=O)c2ccc(C)cc2)C1 (stereo unspecified)	0.523
[N-]=[N+]=Nc1ccccc1C[C@@]1(C(=O)NCc2ccccc2)N=C(c2ccc(OCCCO)cc2)O[C@@H]1c1ccccc1	0.645

Hey, can you go through the list below and give me composite z-score for every item?
1. C=CCN1C(=O)[C@]2(O[C@H](CCO)[C@@H]([Si](C)(C)c3ccc(OC)cc3)[C@@H]2C)c2cc(N3C(=O)c4ccccc4Oc4ccccc43)ccc21
2. COc1ccc([Si](C)(C)[C@H]2[C@H](CCO)O[C@@]3(C(=O)N(Cc4ccccc4)c4ccc(NC(=O)[C@H](C)O)cc43)[C@@H]2C)cc1

Result:
0.467
0.48
